assay: Rat pharmacokinetic profiling (iv, sc, IN); conditions: male, Sprague Dawley, in vivo, sc, 1 mg/kg
measurement_label: bioavailability (%)
Answers are plain numbers, in %.

What measured bioavailability goes with Cc1cc(C[C@@H](NC(=O)N2CCC3(CC2)OC(=O)Nc2ncccc23)C(=O)N[C@@H](CC2CCNCC2)C(=O)N2CCN(c3ccncc3)CC2)cc2cn[nH]c12 ?
100

---

For each of the molecules below, state its solubility thermodynamic at 24 h.
experiment: Thermodynamic solubility profiling; type: physicochemical; details: aqueous buffer, thermodynamic from solid; Sodium Phosphate Buffer pH 6.0, 24 h at rt; read-out: Thermodynamic solubility pH 6
One number for each entry, in µM.

Cc1cc(C[C@@H](NC(=O)N2CCC(N3Cc4ccccc4NC3=O)CC2)C(=O)N[C@@H](CC2CCNCC2)C(=O)N2CCN(c3ccncc3)CC2)cc2cn[nH]c12 | 1170
Cc1cc(C[C@@H](NC(=O)N2CCC3(CC2)OC(=O)Nc2ncccc23)C(=O)N[C@@H](CC2CCNCC2)C(=O)N2CCN(c3ccncc3)CC2)cc2cn[nH]c12 | 1260
O=C(N[C@@H](CC1CCNCC1)C(=O)N1CCN(c2ccncc2)CC1)[C@@H](Cc1cc(Br)c(O)c(Br)c1)NC(=O)N1CCC(n2c(=O)[nH]c3ncccc32)CC1 | 1030
O=C1Nc2ncccc2C2(CCN(C(=O)N[C@H](Cc3cc(Br)c(O)c(Br)c3)C(=O)N[C@@H](CC3CCNCC3)C(=O)N3CCN(c4ccncc4)CC3)CC2)O1 | 1110

Please turn your attention to the following entry.
Look up solubility thermodynamic at 24 h: Cc1cc(C[C@@H](NC(=O)N2CCC(n3c(=O)[nH]c4ncccc43)CC2)C(=O)N[C@@H](CC2CCNCC2)C(=O)N2CCN(c3ccncc3)CC2)cc2cn[nH]c12
3390
